test system: Methicillin resistant Staphylococcus epidermidis (MRSE) strain ATCC 27626; conditions: MRSE ATCC 27626
Peptide text beside a SMILES is read from it. * marks the point of attachment. NHPhenethyl = c1ccc(CCN*)cc1
experimentalEndpoint: MIC MRSE (µM)
Your answer should be a plain number; it is taken to be in µM.

Which MIC MRSE is listed for N=C(N)NCCC[C@H](NC(=O)[C@H](Cc1c[nH]c2ccccc12)NC(=O)[C@@H](N)CCCNC(=N)N)C(=O)NCCc1ccccc1 [Compound 6, reference compound] (H-Arg-Trp-Arg-NHPhenethyl) ? 81

Which MIC MRSE is listed for `N=C(N)NCCC[C@H](NC(=O)[C@H](Cc1ccc(-c2ccc(-c3ccccc3)cc2)cc1)NC(=O)[C@@H](N)CCCNC(=N)N)C(=O)NCCc1ccccc1` ? 3

Which MIC MRSE is listed for `N=C(N)NCCC[C@H](NC(=O)[C@H](Cc1ccc(-c2cccc3ccccc23)cc1)NC(=O)[C@@H](N)CCCNC(=N)N)C(=O)NCCc1ccccc1` ? 3
